# systemUnderTest: androgen receptor (Homo sapiens)
# Sequence (P10275 whole entry Q868H, form open): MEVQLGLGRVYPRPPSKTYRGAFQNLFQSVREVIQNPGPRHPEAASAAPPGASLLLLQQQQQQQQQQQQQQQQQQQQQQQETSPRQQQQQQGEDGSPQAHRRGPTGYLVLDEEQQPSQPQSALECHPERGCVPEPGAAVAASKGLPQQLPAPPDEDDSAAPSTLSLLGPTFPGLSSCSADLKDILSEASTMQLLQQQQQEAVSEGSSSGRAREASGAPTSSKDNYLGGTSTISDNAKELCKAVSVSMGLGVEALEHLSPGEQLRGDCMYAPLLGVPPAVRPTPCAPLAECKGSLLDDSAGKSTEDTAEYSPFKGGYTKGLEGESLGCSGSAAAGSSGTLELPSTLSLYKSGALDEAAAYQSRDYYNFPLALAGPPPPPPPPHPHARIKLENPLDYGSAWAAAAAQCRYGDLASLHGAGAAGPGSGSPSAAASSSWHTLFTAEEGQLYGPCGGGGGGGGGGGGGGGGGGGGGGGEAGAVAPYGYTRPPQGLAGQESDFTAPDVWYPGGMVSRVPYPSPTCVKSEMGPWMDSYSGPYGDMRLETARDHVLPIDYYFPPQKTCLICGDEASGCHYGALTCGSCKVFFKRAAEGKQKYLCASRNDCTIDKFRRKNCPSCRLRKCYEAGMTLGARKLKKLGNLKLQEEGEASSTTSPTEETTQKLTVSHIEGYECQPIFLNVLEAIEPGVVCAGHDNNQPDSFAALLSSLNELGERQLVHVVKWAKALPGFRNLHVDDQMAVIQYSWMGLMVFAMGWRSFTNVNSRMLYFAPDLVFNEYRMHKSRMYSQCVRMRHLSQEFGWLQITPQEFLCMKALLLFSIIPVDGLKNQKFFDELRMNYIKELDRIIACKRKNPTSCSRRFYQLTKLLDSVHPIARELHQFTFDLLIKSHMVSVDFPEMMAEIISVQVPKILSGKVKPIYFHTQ
# testDescription: AR Antagonist Cell Assay (MMTV-luciferase reporter, DHT-stimulated)
# conditionDetails: MDA-MB453-MMTV clone 54-19 cells; antagonism of 100 pM DHT, 17 hr, luciferase readout
readoutType: IC50 (µM)
The reply should be a number in µM, with the unit left off.

Some compounds with recorded IC50:
>  <compound>
CC(C)N(C)S(=O)(=O)c1ccc(Cc2ccc3oc(=O)cc(C(F)(F)F)c3c2)cc1

>  <systemUnderTest>
androgen receptor (Homo sapiens)

>  <readoutType>
IC50

>  <observedValue>
2.65

$$$$
>  <compound>
CCN(Cc1ccccc1)S(=O)(=O)c1ccc(Cc2ccc3oc(=O)cc(C(F)(F)F)c3c2)cc1

>  <systemUnderTest>
androgen receptor (Homo sapiens)

>  <readoutType>
IC50

>  <observedValue>
5.94

$$$$
>  <compound>
CC(O)c1cccc(NS(=O)(=O)c2ccc(Cc3ccc4[nH]c(=O)cc(C(F)(F)F)c4c3)cc2)c1 (stereo not drawn)

>  <systemUnderTest>
androgen receptor (Homo sapiens)

>  <readoutType>
IC50

>  <observedValue>
1.67

$$$$

Measured IC50, O=c1cc(C(F)(F)F)c2cc(Cc3ccc(S(=O)(=O)NCCOc4ccccc4)cc3)ccc2o1 : 6.96

Measured IC50, O=c1cc(C(F)(F)F)c2cc(Cc3ccc(S(=O)(=O)NCc4ccc(F)cc4)cc3)ccc2o1 : 7.68

Measured IC50, CSc1ccccc1CNS(=O)(=O)c1ccc(Cc2ccc3oc(=O)cc(C(F)(F)F)c3c2)cc1 : 8

Measured IC50, O=c1cc(C(F)(F)F)c2cc(Cc3ccc(S(=O)(=O)NCCN4CCOCC4)cc3)ccc2[nH]1 : 6.66

Measured IC50, O=c1cc(C(F)(F)F)c2cc(Cc3ccc(S(=O)(=O)NCCC4=CCCCC4)cc3)ccc2o1 : 8.5
